Tested on: MIA PaCa-2 cells
experiment: Growth inhibition activity on KRAS-G12C mutant cell line (MIA PaCa-2), CellTiter-Glo 3D
Assay type: cell-based, human
test conditions: Homo sapiens, MIA PaCa-2, 72 h, MIA PaCa-2, 3-day culture with compound
pIC50: −log10 of the molar value.
measurement kind: pIC50

Examples with their reported pIC50 follow.
compound	study system	quantitative result
Cn1cnc2cc(-c3cccn4c(C(=O)c5cc(F)c(NC(=O)/C=C/CNC6CCOCC6)c(F)c5)ccc34)c(C(F)(F)F)cc21	MIA PaCa-2 cells	7.09
COCCn1c(C)nc2c(F)c(-c3cccn4c(C(=O)c5cc(F)c(NC(=O)/C=C/CNC6(C)CC6)c(F)c5)ccc34)c(OC)cc21	MIA PaCa-2 cells	7.25
Cc1nc2cc(-c3cccn4c(C(=O)c5cc(F)c(NC(=O)/C=C/CNC6CCCOC6)c(F)c5)ccc34)c(C(F)(F)F)cc2n1C (stereo not drawn)	MIA PaCa-2 cells	6.92
Cc1nc2cc(-c3cccn4c(C(=O)c5cc(F)c(NC(=O)/C=C/CNC6(C)CC6)c(F)c5)ccc34)c(C(F)(F)F)cc2n1C	MIA PaCa-2 cells	6.85

a: CO[C@H]1CC[C@H](NC/C=C/C(=O)Nc2c(F)cc(C(=O)c3cc(C)c4c(-c5c(C)cc6c(nc(C)n6C)c5Cl)cccn34)cc2F)CC1
b: Cn1cnc2cc(-c3cccn4c(C(=O)c5cc(F)c(NC(=O)/C=C/CNC6(C)CCOCC6)c(F)c5)ccc34)c(C(F)(F)F)cc21
-- ask Parameter metric = pIC50. Return the lower-valued option from a and b . Record your answer as the label of the chosen record.
-- reply a
